assay: Antimicrobial residue concentration and depletion in muscle of treated pigs within the withdrawal period (LC-MS/MS or HPLC-FLD); format: in vivo; settings: forequarter muscle, intramuscular; withdrawal period Day 7, pig; read-out: Concentration in Forequarters
QUANTITY_MEASURED: concentration at 7 day of withdrawal period (ng/g)

{"COMPOUND": "CN(C)[C@@H]1C(O)=C(C(N)=O)C(=O)[C@@]2(O)C(O)=C3C(=O)c4c(O)cccc4[C@@](C)(O)[C@H]3[C@H](O)[C@@H]12 [Oxytetracycline, oxytetracycline]", "OBS_VALUE": 411}

====

assay: Antimicrobial residue concentration and depletion in muscle of treated pigs within the withdrawal period (LC-MS/MS or HPLC-FLD); format: in vivo; conditions: loin muscle, intramuscular; withdrawal period Day 2, pig; read-out: Concentration in Loins
Entries and their concentration at 2 day of withdrawal period
QUANTITY_MEASURED: concentration at 2 day of withdrawal period (ng/g)

{"SMILES_NOTATION": "CCN1CCN(c2cc3c(cc2F)c(=O)c(C(=O)O)cn3C2CC2)CC1", "OBS_VALUE": 383}
{"SMILES_NOTATION": "CC1(C)S[C@@H]2[C@H](NC(=O)[C@H](N)c3ccc(O)cc3)C(=O)N2[C@H]1C(=O)O", "OBS_VALUE": 149}
{"SMILES_NOTATION": "COc1ccc(NS(=O)(=O)c2ccc(N)cc2)nn1", "OBS_VALUE": 349}
